# System: Aspergillus fumigatus IAM 2034
# assay_protocol: MIC, two-fold agar dilution, A. fumigatus IAM 2034
# Assay type: cell-based
# run_parameters: IAM2034; Table 3; Aspergillus fumigatus IAM 2034, YMA; read-out: MIC Af-3
measurement_label: MIC (µg/mL)
Answer in µg/mL, number only, no unit symbol.

// query MIC value for entry COc1cc(O)c2c(c1)C(=O)c1c(cc3c(c1O)-c1c(cc(C)c(C(=O)N[C@H](C)C(=O)O)c1O)[C@H](O[C@@H]1O[C@H](C)[C@H](NC(=N)N)[C@H](O[C@@H]4OC[C@@H](O)[C@H](O)[C@H]4O)[C@H]1O)[C@H]3O)C2=O [KHM-8, 4'-Guanidinopradimicin C] 3.1

Please look up its MIC: COc1cc(O)c2c(c1)C(=O)c1c(cc3c(c1O)-c1c(cc(C)c(C(=O)N[C@H](C)C(=O)O)c1O)[C@H](O[C@@H]1O[C@H](C)[C@H](NC(=N)N[N+](=O)[O-])[C@H](O[C@@H]4OC[C@@H](O)[C@H](O)[C@H]4O)[C@H]1O)[C@H]3O)C2=O [KHM-7, 4'-Nitroquanidinopradimicin C] 3.1

For the compound shown here, COc1cc(O)c2c(c1)C(=O)c1c(cc3c(c1O)-c1c(cc(C)c(C(=O)N[C@H](CO)C(=O)O)c1O)[C@H](O[C@@H]1O[C@H](C)[C@H](N(C)N=O)[C@H](O[C@@H]4OC[C@@H](O)[C@H](O)[C@H]4O)[C@H]1O)[C@H]3O)C2=O [KHM-5, 4'-N-Nitrosopradimicin FA-1] , give the reported MIC. 3.1

New cases:
Query: MIC; subject: COc1cc(O)c2c(c1)C(=O)c1c(cc3c(c1O)-c1c(cc(C)c(C(=O)N[C@H](C)C(=O)O)c1O)[C@H](O[C@@H]1O[C@H](C)[C@H](NC=N)[C@H](O[C@@H]4OC[C@@H](O)[C@H](O)[C@H]4O)[C@H]1O)[C@H]3O)C2=O [KHM-9, 4'-Amidinopradimicin C] 1.6

Given CN[C@@H]1[C@H](O[C@@H]2OC[C@@H](O)[C@H](O)[C@H]2O)[C@@H](O)[C@H](O[C@H]2c3cc(C)c(C(=O)N[C@H](C)C(=O)O)c(O)c3-c3c(cc4c(c3O)C(=O)c3cc(OC)cc(O)c3C4=O)[C@@H]2O)O[C@@H]1C [Pradimicin A, reference compound] , state its recorded MIC. 0.8

Can you look up the measured MIC of COc1cc(O)c2c(c1)C(=O)c1c(cc3c(c1O)-c1c(cc(C)c(C(=O)N[C@H](CO)C(=O)O)c1O)[C@H](O[C@@H]1O[C@H](C)[C@H](N(C)C#N)[C@H](O[C@@H]4OC[C@@H](O)[C@H](O)[C@H]4O)[C@H]1O)[C@H]3O)C2=O [KHM-3, 4'-Cyanooradimicin FA-1] for me? 25

###

Hi! I'm sharing some MIC results obtained with Candida tropicalis 85-8.
Unit µg/mL implied. Number only.

Use the examples below as a reference point.
Quick one: MIC for COc1cc(O)c2c(c1)C(=O)c1c(cc3c(c1O)-c1c(cc(C)c(C(=O)N[C@H](CO)C(=O)O)c1O)[C@H](O[C@@H]1O[C@H](C)[C@H](N(C)N=O)[C@H](O[C@@H]4OC[C@@H](O)[C@H](O)[C@H]4O)[C@H]1O)[C@H]3O)C2=O ? 12.5

Recorded MIC of COc1cc(O)c2c(c1)C(=O)c1c(cc3c(c1O)-c1c(cc(C)c(C(=O)N[C@H](CO)C(=O)O)c1O)[C@H](O[C@@H]1O[C@H](C)[C@H](N)[C@H](O[C@@H]4OC[C@@H](O)[C@H](O)[C@H]4O)[C@H]1O)[C@H]3O)C2=O [Pradimicin FA-2, reference compound] , please. 6.3

Fill in the blank: the reported MIC of COc1cc(O)c2c(c1)C(=O)c1c(cc3c(c1O)-c1c(cc(C)c(C(=O)N[C@H](C)C(=O)O)c1O)[C@H](O[C@@H]1O[C@H](C)[C@H](NC#N)[C@H](O[C@@H]4OC[C@@H](O)[C@H](O)[C@H]4O)[C@H]1O)[C@H]3O)C2=O is ____. 12.5

Continue with the next compound.
# query: MIC of entry COc1cc(O)c2c(c1)C(=O)c1c(cc3c(c1O)-c1c(cc(C)c(C(=O)N[C@H](C)C(=O)O)c1O)[C@H](O[C@@H]1O[C@H](C)[C@H](N)[C@H](O[C@@H]4OC[C@@H](O)[C@H](O)[C@H]4O)[C@H]1O)[C@H]3O)C2=O 100

###

# System: Candida albicans A9540
# assay_protocol: animal or person
# Format: in vivo, male ICR mice infected with Candida albicans A9540
# run_parameters: Candida albicans, A9540, 480 h; C. albicans, mice, 12.5 mg/kg iv, 20th day post-infection; read-out: S/T (No. of survivors/tested) (converted)
Property: responders at 12.5 mg/kg; scope: individual compounds
Write the number in % without appending the unit.

Example entries begin here.
# get_value(readout='responders at 12.5 mg/kg', item= COc1cc(O)c2c(c1)C(=O)c1c(cc3c(c1O)-c1c(cc(C)c(C(=O)N[C@H](C)C(=O)O)c1O)[C@H](O[C@@H]1O[C@H](C)[C@H](N)[C@H](O[C@@H]4OC[C@@H](O)[C@H](O)[C@H]4O)[C@H]1O)[C@H]3O)C2=O [Pradimicin C] ) 40

Using the record for COc1cc(O)c2c(c1)C(=O)c1c(cc3c(c1O)-c1c(cc(C)c(C(=O)N[C@H](CO)C(=O)O)c1O)[C@H](O[C@@H]1O[C@H](C)[C@H](NC#N)[C@H](O[C@@H]4OC[C@@H](O)[C@H](O)[C@H]4O)[C@H]1O)[C@H]3O)C2=O [KHM-4, 4'-N-Cyanopradimicin FA2] , report its responders at 12.5 mg/kg. 20

// moving on: another record for responders at 12.5 mg/kg
Name the reported responders at 12.5 mg/kg value associated with the compound CN[C@@H]1[C@H](O[C@@H]2OC[C@@H](O)[C@H](O)[C@H]2O)[C@@H](O)[C@H](O[C@H]2c3cc(C)c(C(=O)N[C@H](C)C(=O)O)c(O)c3-c3c(cc4c(c3O)C(=O)c3cc(OC)cc(O)c3C4=O)[C@@H]2O)O[C@@H]1C [Pradimicin A, reference compound] 80

###

Reported values: MIC for Candida tropicalis IFO 10241, one per item.
// units = µg/mL; emit number, no label

Short answer please: MIC, Candida tropicalis IFO 10241, entry COc1cc(O)c2c(c1)C(=O)c1c(cc3c(c1O)-c1c(cc(C)c(C(=O)N[C@H](C)C(=O)O)c1O)[C@H](O[C@@H]1O[C@H](C)[C@H](N)[C@H](O[C@@H]4OC[C@@H](O)[C@H](O)[C@H]4O)[C@H]1O)[C@H]3O)C2=O [Pradimicin C] 100

Find the measured MIC: item COc1cc(O)c2c(c1)C(=O)c1c(cc3c(c1O)-c1c(cc(C)c(C(=O)N[C@H](C)C(=O)O)c1O)[C@H](O[C@@H]1O[C@H](C)[C@H](N(C)C#N)[C@H](O[C@@H]4OC[C@@H](O)[C@H](O)[C@H]4O)[C@H]1O)[C@H]3O)C2=O [KHM-1, 4'-N-Cyanogradimicin A] , target or system Candida tropicalis IFO 10241. 12.5

Any idea what MIC came out for CN[C@@H]1[C@H](O[C@@H]2OC[C@@H](O)[C@H](O)[C@H]2O)[C@@H](O)[C@H](O[C@H]2c3cc(C)c(C(=O)N[C@H](CO)C(=O)O)c(O)c3-c3c(cc4c(c3O)C(=O)c3cc(OC)cc(O)c3C4=O)[C@@H]2O)O[C@@H]1C [Pradimicin FA-1, reference compound] on Candida tropicalis IFO 10241? 6.3

Continuing:
Value wanted: MIC (Candida tropicalis IFO 10241) of entry COc1cc(O)c2c(c1)C(=O)c1c(cc3c(c1O)-c1c(cc(C)c(C(=O)N[C@H](CO)C(=O)O)c1O)[C@H](O[C@@H]1O[C@H](C)[C@H](N)[C@H](O[C@@H]4OC[C@@H](O)[C@H](O)[C@H]4O)[C@H]1O)[C@H]3O)C2=O [Pradimicin FA-2, reference compound] 6.3

###

# Tested on: Cryptococcus neoformans IAM 4514
# assay_protocol: MIC, two-fold agar dilution, C. neoformans IAM 4514
# Type: cell-based
# run_parameters: IAM4514; Cryptococcus neoformans IAM 4514; YMA pH 7.0, 28° C., 40 hours; read-out: MIC
MIC reference
Give the value in µg/mL but do not write µg/mL after it.

Value lookup for MIC; key = COc1cc(O)c2c(c1)C(=O)c1c(cc3c(c1O)-c1c(cc(C)c(C(=O)N[C@H](CO)C(=O)O)c1O)[C@H](O[C@@H]1O[C@H](C)[C@H](N(C)N=O)[C@H](O[C@@H]4OC[C@@H](O)[C@H](O)[C@H]4O)[C@H]1O)[C@H]3O)C2=O 3.1

Turning now to a further record.
// MIC lookup, key: COc1cc(O)c2c(c1)C(=O)c1c(cc3c(c1O)-c1c(cc(C)c(C(=O)N[C@H](CO)C(=O)O)c1O)[C@H](O[C@@H]1O[C@H](C)[C@H](N)[C@H](O[C@@H]4OC[C@@H](O)[C@H](O)[C@H]4O)[C@H]1O)[C@H]3O)C2=O [Pradimicin FA-2, reference compound] 1.6
